Reference source: patent US20240252488A1

target: MLKL (Homo sapiens, UniProt Q8NB16); experiment: MLKL degradation assay in HepG2 cell line (western blot); type: cell-based; design: endogenous in cells; host or cells: HepG2 or HaCaT; settings: compound 10 μM; cell line not given
Labels assigned by Degradation assay (Degradation %) 10 μM range: low class: < 70%; middle class: ≥ 70% and < 80%; high class: ≥ 80%

Classify this molecule: Nc1ncc(-c2cnn(C3CCN(C4CC5(CCN(CC6CCN(C(=O)Cc7cccc(NC8=CC(=O)N(C9CCC(=O)NC9=O)C8=O)c7)CC6)CC5)C4)CC3)c2)nc1C(=O)O[C@@H](C(=O)Nc1ccc(F)cc1)c1ccccc1 (stereo partly shown)
high class

Into which category would you place Nc1ncc(-c2cnn(C3CCN(CCOC4CCN(C(=O)COc5cccc6c5C(=O)N(C5CCC(=O)NC5=O)C6=O)CC4)CC3)c2)nc1C(=O)OC(C(=O)Nc1ccc(F)cc1)c1ccccc1 (stereo not shown) ?
low class

Form field 'band' for Nc1ncc(-c2cnn(C3CCN(CCCN4CCN(C(=O)CNc5ccc6c(c5)C(=O)N(C5CCC(=O)NC5=O)C6=O)CC4)CC3)c2)nc1C(=O)OC(C(=O)Nc1ccc(F)cc1)c1ccccc1 (stereo not shown)
low class

Returns: class label. Input: Nc1ncc(-c2cnn(C3CCN(CCOC4CCN(C(=O)C5CCN(C6=CC(=O)N(C7CCC(=O)NC7=O)C6=O)CC5)CC4)CC3)c2)nc1C(=O)O[C@@H](C(=O)Nc1ccc(F)cc1)c1ccccc1 (stereo partly shown)
low class

Band for the recorded Degradation assay (Degradation %) 10 μM of Nc1ncc(-c2cnn(C3CCN(CC4CN(C(=O)COc5ccc6c(c5)C(=O)N(C5CCC(=O)NC5=O)C6=O)CCO4)CC3)c2)nc1C(=O)OC(C(=O)Nc1ccc(F)cc1)c1ccccc1 (stereo not shown) ?
middle class

Textbook exercise: identify the category of the molecule given here, Nc1ncc(-c2cnn(C3CCN(C(=O)CCC4CCN(C(=O)CNc5cccc6c5C(=O)N(C5CCC(=O)NC5=O)C6=O)CC4)CC3)c2)nc1C(=O)O[C@@H](C(=O)Nc1ccc(F)cc1)c1ccccc1 (stereo partly shown) , according to its measured value.
high class

Sort Nc1ncc(-c2cnn(C3CCN(C(=O)CC4CCN(C(=O)CNc5cccc6c5C(=O)N(C5CCC(=O)NC5=O)C6=O)CC4)CC3)c2)nc1C(=O)O[C@@H](C(=O)Nc1ccc(F)cc1)c1ccccc1 (stereo partly shown) into one of the categories.
low class

Hello team, could you let me know which band the following molecule falls into: Nc1ncc(-c2cnn(C3CCN(CC4CCN(C(=O)C5CCN(C6=CC(=O)N(C7CCC(=O)NC7=O)C6=O)CC5)CC4)CC3)c2)nc1C(=O)O[C@@H](C(=O)Nc1ccc(F)cc1)c1ccccc1 (stereo partly shown)
middle class

Please report the category associated with Nc1ncc(-c2cnn(C3CCN(C(=O)CCC4CCN(C(=O)CCc5ccc6c(c5)C(=O)N(C5CCC(=O)NC5=O)C6=O)CC4)CC3)c2)nc1C(=O)O[C@@H](C(=O)Nc1ccc(F)cc1)c1ccccc1 (stereo partly shown) , nothing else.
middle class

----------
Biological target: MLKL (Homo sapiens)
Sequence (Q8NB16 1-471): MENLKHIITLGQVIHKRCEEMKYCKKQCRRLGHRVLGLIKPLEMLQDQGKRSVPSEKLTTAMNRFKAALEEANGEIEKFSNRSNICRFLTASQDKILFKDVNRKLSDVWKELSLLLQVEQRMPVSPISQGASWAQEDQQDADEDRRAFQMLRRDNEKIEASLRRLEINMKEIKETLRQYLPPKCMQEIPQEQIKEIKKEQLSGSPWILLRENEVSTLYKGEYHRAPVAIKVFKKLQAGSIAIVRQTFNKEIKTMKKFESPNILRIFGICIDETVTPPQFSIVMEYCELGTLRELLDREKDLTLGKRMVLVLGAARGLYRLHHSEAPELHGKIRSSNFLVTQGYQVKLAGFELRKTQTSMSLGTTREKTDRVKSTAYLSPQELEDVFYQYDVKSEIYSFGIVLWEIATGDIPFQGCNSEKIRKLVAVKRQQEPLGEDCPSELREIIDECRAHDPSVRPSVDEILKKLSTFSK
Counter-ions that a name gives are not always drawn.
reported.endpoint: pKd
// scale note: pKd = -log10(conc_M); give the bare number

For Nc1ncc(-c2cnn(C3CCN(CCOC4CCN(C(=O)C5CCN(c6cccc7c6C(=O)N(C6CCC(=O)NC6=O)C7=O)CC5)CC4)CC3)c2)nc1C(=O)OC(C(=O)Nc1ccc(F)cc1)c1ccccc1 (stereo not drawn) , write its pKd.
8.34

Provide only the value of recorded pKd for Nc1ncc(-c2cnn(C3CCNCC3)c2)nc1C(=O)OC(C(=O)Nc1ccc(F)cc1)c1ccc(F)cc1 (stereo not drawn) [TDH-489, hydrochloride]
8.92

Supply measured pKd of Nc1ncc(-c2cnn(C3CCN(CCOC4CCN(C(=O)c5ccc6c(N7CCC(=O)NC7=O)coc6c5)CC4)CC3)c2)nc1C(=O)O[C@@H](C(=O)Nc1ccc(F)cc1)c1ccccc1 in your reply.
9.37
